These data points were gathered from patent US12459921B2.

- System: MM.1S cells
- Test Details: Inhibitory effect on the proliferation of MM.1S, MTS cell viability test
- Type: cell-based
- Setup Conditions: Homo sapiens, MM1.S, 168 h, multiple myeloma MM.1S cells, 7 days incubation, read-out: Tumor cell inhibitory activity
The following molecules are shown together with reported IC50 values.

Molecule	IC50
O=C1CCC(N2Cc3c(CCCCCN4CCC5(CC4)C(=O)Nc4cc(Cl)ccc45)cccc3C2=O)C(=O)N1 (centres unmarked)	100 to 1000 nM
N#CC1(c2ccc(Cl)cc2Cl)CCN(CCCCc2cccc3c2CN(C2CCC(=O)NC2=O)C3=O)CC1 (centres unmarked)	< 100 nM
N#CC1(c2ccccc2OC(F)(F)F)CCN(C(=O)CCCOc2cccc3c2CN(C2CCC(=O)NC2=O)C3=O)CC1 (centres unmarked)	1000 to 20000 nM
O=C1CCC(N2Cc3c(OCCCCCN4CCC5(CC4)OCc4ccc(F)cc45)cccc3C2=O)C(=O)N1 (centres unmarked)	< 100 nM
CC(=O)N[C@@H](CCCc1cccc2c1CN(C1CCC(=O)NC1=O)C2=O)c1nc2ccccc2[nH]1 (some centres unmarked)	100 to 1000 nM
O=C1CCC(N2Cc3c(CCCCN4CCN(c5ccc([N+](=O)[O-])cc5)CC4)cccc3C2=O)C(=O)N1 (centres unmarked)	< 100 nM
O=C1CCC(N2Cc3c(CCCCN4CCN(c5ccccc5[N+](=O)[O-])CC4)cccc3C2=O)C(=O)N1 (centres unmarked)	< 100 nM
O=C1CCC(N2Cc3c(CCCCN4CCN(c5ccccc5Cl)CC4)cccc3C2=O)C(=O)N1 (centres unmarked)	< 100 nM

* * *

- Tested on: MM.1S cells
- Test Details: Inhibitory effect on the proliferation of MM.1S, MTS cell viability test
- Assay type: cell-based
- Setup Conditions: Homo sapiens, MM1.S, 168 h, multiple myeloma MM.1S cells, 7 days incubation, read-out: Tumor cell inhibitory activity
pIC50: −log10 of the molar value.

Compound	pIC50
O=C1CCC(N2Cc3c(CCCCN4CCN(c5ccccc5C(F)(F)F)CC4)cccc3C2=O)C(=O)N1 (stereo not drawn)	> 7.00
O=C1CCC(N2Cc3c(CCCCCN4CCN(c5ccc(Cl)c(Cl)c5)CC4)cccc3C2=O)C(=O)N1 (stereo not drawn)	6.00 to 7.00
N#CC1(c2ccc(C(F)(F)F)cc2)CCN(CCCCCc2cccc3c2CN(C2CCC(=O)NC2=O)C3=O)CC1 (stereo not drawn)	4.70 to 6.00
